Molecular target: Staphylococcus aureus alpha toxin (Staphylococcus aureus, UniProt P09616)
Sequence (P09616 27-319 limits assumed): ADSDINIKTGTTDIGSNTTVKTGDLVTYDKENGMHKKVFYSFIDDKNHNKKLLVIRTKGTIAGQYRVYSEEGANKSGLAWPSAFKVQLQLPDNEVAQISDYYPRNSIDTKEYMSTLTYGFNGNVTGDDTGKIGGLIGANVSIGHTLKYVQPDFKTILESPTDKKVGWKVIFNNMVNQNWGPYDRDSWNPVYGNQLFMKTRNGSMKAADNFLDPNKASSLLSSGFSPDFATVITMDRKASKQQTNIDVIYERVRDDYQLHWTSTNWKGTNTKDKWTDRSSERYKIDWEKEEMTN
quantity-kind: EC50 (ng/mL)
State just the number; it will be interpreted in ng/mL.

Incoming: For the binder huG1-Fc fusion proteins binding with antigen (Fc fusion) QVQLVESGGGLVQPGGSLRLSCAASGFTISSTGMTWVRQAPGKGLEWVGDINIPGTDTDYDISVKGRFTISKDHAKNTVYLQMNSLRAEDTAVYYCAKQGANLRQGVQGQGTLVTVSSEPKSSDKTHTCPPCPAPELLGGPSVFLFPPKPKDTLYITREPEVTCVVVDVSHEDPEVKFNWYVDGVEVHNAKTKPREEQYNSTYRVVSVLTVLHQDWLNGKEYKCKVSNKALPAPIEKTISKAKGQPREPQVYTLPPSREEMTKNQVSLTCLVKGFYPSDIAVEWESNGQPENNYKTTPPVLDSDGSFFLYSKLTVDKSRWQQGNVFSCSVMHEALHNHYTQKSLSLSPGK , report EC50.
Outgoing: 6.35

These data points were gathered from patent US20240059764A1.
